Molecular target: α4β7 integrin (Homo sapiens (Human), UniProt P13612+P26010)
Sequence (P13612 34-1032): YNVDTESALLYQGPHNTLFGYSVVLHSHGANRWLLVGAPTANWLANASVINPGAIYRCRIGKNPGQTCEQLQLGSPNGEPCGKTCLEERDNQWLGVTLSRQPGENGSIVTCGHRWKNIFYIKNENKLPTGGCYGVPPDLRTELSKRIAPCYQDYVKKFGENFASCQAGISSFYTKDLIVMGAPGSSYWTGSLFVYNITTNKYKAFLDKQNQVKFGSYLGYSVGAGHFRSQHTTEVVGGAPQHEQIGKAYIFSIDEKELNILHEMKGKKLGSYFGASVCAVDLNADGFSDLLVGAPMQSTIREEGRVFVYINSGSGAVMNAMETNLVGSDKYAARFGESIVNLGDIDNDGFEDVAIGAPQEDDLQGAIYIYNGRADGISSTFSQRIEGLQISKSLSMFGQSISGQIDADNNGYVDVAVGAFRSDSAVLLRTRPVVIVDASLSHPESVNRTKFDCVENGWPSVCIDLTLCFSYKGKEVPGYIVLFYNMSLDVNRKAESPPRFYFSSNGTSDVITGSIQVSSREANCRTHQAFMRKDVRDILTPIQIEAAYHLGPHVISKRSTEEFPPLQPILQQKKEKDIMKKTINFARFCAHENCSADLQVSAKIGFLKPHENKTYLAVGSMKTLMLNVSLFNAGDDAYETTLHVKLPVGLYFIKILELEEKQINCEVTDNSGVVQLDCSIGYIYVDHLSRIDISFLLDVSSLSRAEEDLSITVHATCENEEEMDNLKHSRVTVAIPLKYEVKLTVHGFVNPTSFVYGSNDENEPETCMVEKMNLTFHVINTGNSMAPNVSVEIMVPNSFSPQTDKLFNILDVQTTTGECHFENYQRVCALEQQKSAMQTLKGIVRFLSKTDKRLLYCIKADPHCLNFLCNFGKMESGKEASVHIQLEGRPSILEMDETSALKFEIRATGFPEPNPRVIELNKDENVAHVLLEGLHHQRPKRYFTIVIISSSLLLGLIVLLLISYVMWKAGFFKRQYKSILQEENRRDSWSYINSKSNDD
Sequence (P26010 20-798): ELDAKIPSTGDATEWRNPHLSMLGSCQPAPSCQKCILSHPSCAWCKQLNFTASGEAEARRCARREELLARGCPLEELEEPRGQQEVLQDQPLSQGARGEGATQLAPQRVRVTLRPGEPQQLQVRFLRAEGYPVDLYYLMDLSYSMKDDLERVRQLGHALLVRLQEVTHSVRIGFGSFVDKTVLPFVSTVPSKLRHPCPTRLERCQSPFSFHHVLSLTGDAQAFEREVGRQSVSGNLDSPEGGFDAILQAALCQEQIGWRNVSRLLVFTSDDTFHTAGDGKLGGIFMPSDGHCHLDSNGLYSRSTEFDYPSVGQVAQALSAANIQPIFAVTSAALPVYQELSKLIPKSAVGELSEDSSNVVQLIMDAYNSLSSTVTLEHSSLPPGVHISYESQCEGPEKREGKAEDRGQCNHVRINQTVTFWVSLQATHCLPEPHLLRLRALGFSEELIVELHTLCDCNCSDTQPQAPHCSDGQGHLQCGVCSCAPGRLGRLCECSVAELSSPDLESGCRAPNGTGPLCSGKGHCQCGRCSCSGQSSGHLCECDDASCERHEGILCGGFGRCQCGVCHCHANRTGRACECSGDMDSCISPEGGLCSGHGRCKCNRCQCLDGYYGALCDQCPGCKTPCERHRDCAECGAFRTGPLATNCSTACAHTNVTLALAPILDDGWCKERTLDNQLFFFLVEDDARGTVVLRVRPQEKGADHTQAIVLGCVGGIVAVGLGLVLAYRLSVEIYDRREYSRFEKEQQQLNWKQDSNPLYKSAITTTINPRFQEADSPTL
Test: Integrin Adhesion Assay: Protocol 1 (MAdCAM-coated plate, RPMI-8866 cells, CellTiter GLO readout)
Assay type: cell-based
ENDPOINT LABEL: IC50

Cn1c(=O)c(-c2cccc3c(C[C@H](NC(=O)c4c(F)cc(N5CCCCC5)cc4F)C(=O)O)cccc23)c(C(F)(F)F)c2ccccc21 [Compound 354]; 100 to 1000 nM

IN: Fill in the blank: the reported IC50 of Cn1c(=O)c(-c2cccc3c(C[C@H](NC(=O)c4c(F)cccc4CN4CCC(F)(F)C4)C(=O)O)cccc23)c(C(F)(F)F)c2ccccc21 [Compound 456] is ____.
OUT: 10 to 100 nM

IN: Could you tell me which IC50 is on file for CN(C)c1ccc2c(c1)c(C(F)(F)F)c(-c1cccc3c(C[C@H](NC(=O)[C@]4(C)CC[C@H](N5CCC(F)(F)CC5)CC4)C(=O)O)cccc13)c(=O)n2C [Compound 412] ?
OUT: > 1000 nM

IN: Please give the measured IC50 for this compound: CN1CCN(c2cc(F)c(C(=O)N[C@@H](Cc3cccc4c(-c5c(C(F)(F)F)c6ccccc6n(C)c5=O)cccc34)C(=O)O)c(F)c2)CC1 [Compound 350]
OUT: 10 to 100 nM

IN: I'd like to know its IC50. The compound in question is CN(C)Cc1cccc2c(-c3cccc4c(C[C@H](NC(=O)c5c(F)cc(N6CCOC[C@@H]6C(F)(F)F)cc5CN5CCCC5)C(=O)O)cccc34)nccc12 [Compound 433]
OUT: < 10 nM

IN: Quick check: IC50 of CN1CCC(c2cc(F)c(C(=O)N[C@@H](Cc3cccc4c(-c5c(C(F)(F)F)c6ccccc6n(C)c5=O)cccc34)C(=O)O)c(F)c2)C1 (stereo partly drawn) [Compound 372] ?
OUT: 100 to 1000 nM

IN: Could you share which IC50 value was measured for Cn1ccc(C(F)(F)F)c(-c2cccc3c(C[C@H](NC(=O)c4c(F)cc(N5CCOC(CN6CCCC6)C5)cc4F)C(=O)O)cccc23)c1=O (stereo partly drawn) [Compound 440] ?
OUT: 10 to 100 nM

IN: Find the recorded IC50 belonging to Cn1c(=O)c(-c2cccc3c(C[C@H](NC(=O)c4c(F)cc(N5CC6(COC6)C5)cc4F)C(=O)O)cccc23)c(C(F)(F)F)c2ccccc21 [Compound 426] and report it.
OUT: 100 to 1000 nM

IN: Requested field: IC50. Item: Cn1c(=O)c(-c2cccc3c(C[C@H](NC(=O)[C@]4(C(F)(F)F)CC[C@@H](N5CCOC[C@@H]5C(F)(F)F)CC4)C(=O)O)cccc23)c(C(F)(F)F)c2ccccc21 [Compound 422]
OUT: 10 to 100 nM

IN: Look at this compound and give its reported IC50. CN(C)c1ccc2c(-c3cccc4c(C[C@H](NC(=O)c5c(F)cc(N6CCOC[C@@H]6C(F)(F)F)cc5CN5CCOCC5)C(=O)O)cccc34)nccc2c1 [Compound 299]
OUT: < 10 nM

IN: I am curious: what IC50 value has been reported for Cn1c(=O)c(-c2cccc3c(C[C@H](NC(=O)c4c(F)cc(C5CCCOC5)cc4F)C(=O)O)cccc23)c(C(F)(F)F)c2ccccc21 (stereo partly drawn) [Compound 374] ?
OUT: 100 to 1000 nM

IN: Which IC50 value is on record for CN1CCN(Cc2cccc(F)c2C(=O)N[C@@H](Cc2cccc3c(-c4c(C(F)(F)F)c5ccccc5n(C)c4=O)cccc23)C(=O)O)CC1 [Compound 353] ?
OUT: 10 to 100 nM

IN: Give its IC50 value. Item: O=C(N[C@@H](Cc1cccc2c(-c3cccc4ccncc34)cccc12)C(=O)O)c1c(F)cccc1CN1CCC(F)(F)CC1 [Compound 358]
OUT: 10 to 100 nM

IN: May I ask what IC50 has been recorded for CN(C)C1CCN(Cc2cc(N3CCOC[C@@H]3C(F)(F)F)cc(F)c2C(=O)N[C@@H](Cc2cccc3c(-c4cccc5ccncc45)cccc23)C(=O)O)CC1 [Compound 300] ?
OUT: < 10 nM

IN: If you can, please state the reported IC50 value of Cn1c(=O)c(-c2cccc3c(C[C@H](NC(=O)c4c(F)cc(N(CC(F)(F)F)C5COC5)cc4F)C(=O)O)cccc23)c(C(F)(F)F)c2ccccc21 [Compound 380] .
OUT: 10 to 100 nM

IN: GET /values?readout=IC50&item= Cn1c(=O)c(-c2cccc3c(C[C@H](NC(=O)C45CC(NCC(F)(F)F)(C4)C5)C(=O)O)cccc23)c(C(F)(F)F)c2ccccc21 [Compound 447]
OUT: 100 to 1000 nM
